- Test Target: CYP3A4 (Homo sapiens)
- Sequence (P08684 whole entry): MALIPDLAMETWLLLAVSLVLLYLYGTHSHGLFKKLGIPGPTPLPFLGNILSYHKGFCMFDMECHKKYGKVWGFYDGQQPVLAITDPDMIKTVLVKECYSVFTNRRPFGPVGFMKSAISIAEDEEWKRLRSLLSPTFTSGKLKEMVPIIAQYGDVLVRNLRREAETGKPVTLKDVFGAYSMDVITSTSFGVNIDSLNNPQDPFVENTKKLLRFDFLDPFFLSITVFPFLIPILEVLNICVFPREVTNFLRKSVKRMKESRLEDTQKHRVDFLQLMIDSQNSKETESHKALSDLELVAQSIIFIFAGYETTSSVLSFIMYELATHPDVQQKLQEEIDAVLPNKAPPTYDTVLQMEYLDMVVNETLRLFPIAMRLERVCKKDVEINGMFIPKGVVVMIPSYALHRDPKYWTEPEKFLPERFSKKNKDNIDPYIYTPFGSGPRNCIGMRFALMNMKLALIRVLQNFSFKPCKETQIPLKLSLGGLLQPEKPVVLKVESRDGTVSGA
- Assay Explanation: CYP3A4 Vivid CYP450 Red fluorescent inhibition assay
- Format: biochemical
Each record is given Fulfilled if its reported IC50 is strictly below 0.7 µM. Records at or above 0.7 µM are given Not fulfilled.

[ask] Record CCCCC/C=C\C/C=C\CCCCCCCC(=O)O [Linoleic acid] : is its IC50 strictly below 0.7 µM?
[reply] Not fulfilled

[ask] Input CCCCC/C=C\C/C=C\C/C=C\C/C=C\CCCC(=O)O [Arachidonic acid] ; condition: IC50 strictly below 0.7 µM. Does it hold?
[reply] Not fulfilled

[ask] Find out if reported IC50 for CCOP(=S)(OCC)Oc1nc(Cl)c(Cl)cc1Cl [Chlorpyrifos] is less than 0.7 µM
[reply] Fulfilled

[ask] Does the reported IC50 of CCOP(=S)(OCC)Oc1ccc([N+](=O)[O-])cc1 [Parathion] stay below 0.7 µM?
[reply] Not fulfilled

[ask] A record lists CC/C=C\C/C=C\C/C=C\CCCCCCCC(=O)O [α-Linolenic acid] . Is its IC50 below 0.7 µM?
[reply] Not fulfilled

[ask] Problem: For the compound C[C@]12CC[C@@H]3c4ccc(O)cc4CC[C@H]3[C@@H]1CC[C@@H]2O [Estradiol] , is IC50 under 0.7 µM?
[reply] Not fulfilled

[ask] Decide: IC50 of O=S1OCC2C(CO1)C1(Cl)C(Cl)=C(Cl)C2(Cl)C1(Cl)Cl (stereo not drawn) [Endosulfan] strictly below 0.7 µM?
[reply] Fulfilled

[ask] Please indicate whether the reported IC50 of CC/C=C\C/C=C\C/C=C\C/C=C\C/C=C\C/C=C\CCC(=O)O [Docosahexaenoic acid] is strictly below 0.7 µM.
[reply] Not fulfilled

[ask] Would you kindly verify if IC50 of CCCCCCCCCCCCCCCC(=O)O [Palmitic acid] is strictly less than 0.7 µM?
[reply] Not fulfilled

src = paper PMC8914530
